biological target: 5'-nucleotidase CD73 (Homo sapiens) (UniProt P21589); experiment: Binding affinity to human recombinant CD73 expressed in Sf9 cells assessed as inhibition constant by malachite green based spectrophotometer assay
Sequence (P21589 whole entry, looked up): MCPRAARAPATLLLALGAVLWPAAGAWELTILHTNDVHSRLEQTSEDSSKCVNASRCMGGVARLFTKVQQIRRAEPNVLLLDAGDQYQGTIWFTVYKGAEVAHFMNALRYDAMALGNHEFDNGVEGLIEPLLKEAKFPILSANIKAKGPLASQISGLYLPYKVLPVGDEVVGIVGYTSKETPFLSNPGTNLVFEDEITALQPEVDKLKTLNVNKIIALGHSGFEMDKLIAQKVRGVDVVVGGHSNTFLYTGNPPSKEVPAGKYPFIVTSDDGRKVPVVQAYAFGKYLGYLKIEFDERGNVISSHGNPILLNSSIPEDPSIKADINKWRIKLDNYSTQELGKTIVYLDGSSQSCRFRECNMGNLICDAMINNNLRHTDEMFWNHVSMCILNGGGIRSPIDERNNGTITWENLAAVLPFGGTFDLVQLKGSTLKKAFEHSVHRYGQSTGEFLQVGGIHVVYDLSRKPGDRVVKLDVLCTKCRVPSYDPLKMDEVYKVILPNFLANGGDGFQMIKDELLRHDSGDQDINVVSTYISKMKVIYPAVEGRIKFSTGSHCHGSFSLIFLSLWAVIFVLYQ
metric: Ki (nM)
One number for each entry, in nM.

Prompt: Which Ki reading was recorded for the compound CCN(CC)c1nc(Cl)nc2c1ncn2[C@@H]1O[C@H](COCP(=O)(O)OP(=O)(O)C(Br)(Br)P(=O)(O)O)[C@@H](O)[C@H]1O ?
Response: 97
